systemUnderTest: GTPase KRas (Homo sapiens)
testDetails: Inhibition of recombinant human GTP-bound KRAS wild type (1 to 169 residues) incubated for 1 hr by HTRF assay
Measured pIC50 of individual entries
Entry type: numeric. Quantity: pIC50, the -log10 of concentration in molar units.

Q. Let me know recorded pIC50 for [2H]C([2H])(Oc1nc(N2C[C@H]3CC[C@@H](C2)N3)c2cnc(-c3cccc4ccc(F)c(C#C)c34)c(F)c2n1)C12CCCN1CC(=C(F)F)C2 (some centres undefined) , thanks.
A. 7.69

Q. Let me know recorded pIC50 for [2H]C([2H])(Oc1nc(N2C[C@H]3CC[C@@H](C2)N3)c2cnc(-c3cc(N)cc4ccc(F)c(C#C)c34)c(F)c2n1)C12CCCN1CC(=C(F)F)C2 (some centres undefined) , thanks.
A. 7.78

Q. Let me know recorded pIC50 for [2H]C([2H])(Oc1nc(N2C[C@H]3CC[C@@H](C2)N3)c2cnc(-c3cc(O)cc4ccc(F)c(C#C)c34)c(F)c2n1)C12CCCN1CC(=C(F)F)C2 (some centres undefined) , thanks.
A. 7.99

Q. Let me know recorded pIC50 for [2H]C([2H])(Oc1nc(NCC2(N(C)C)CCC2)c2cnc(-c3cc(O)cc4ccc(F)c(C#C)c34)c(F)c2n1)C12CCCN1CC(=C(F)F)C2 (centres undefined) , thanks.
A. 7.73

---

System: A549
testDetails: Antiproliferative activity against human A549 cells harboring […] assessed as inhibition of cell growth incubated for 5 days by crystal violet staining analysis
Format: functional, cell-based
assayConditions: a549
quantityMeasured: pIC50
Entry type: numeric. Quantity: pIC50, the -log10 of concentration in molar units.

Q. Let me know recorded pIC50 for C#CCN(C)C(=O)OC[C@H]1CC[C@@]2(COc3nc(N4C[C@H]5CC[C@@H](C4)N5)c4cnc(-c5cc(O)cc6ccc(F)c(C#C)c56)c(F)c4n3)CCCN12 (racemic) , thanks.
A. 5.75

---

Measured half-life at 150 µM of individual entries
testDetails: Metabolic stability in monkey liver microsomes assessed as half life at 150 uM measured after 60 mins in presence of NADPH by LC-MS/MS analysis
Assay type: ADME, Macaca mulatta, Microsome
assayConditions: rhesus monkey
Express your answer as a number followed by its unit.

Use these answered entries as a reference point.
| molecule | recordedMeasurement |
| --- | --- |
| [2H]C([2H])(Oc1nc(N2C[C@H]3CC[C@@H](C2)N3)c2cnc(-c3cc(N)cc4ccc(F)c(C#C)c34)c(F)c2n1)C12CCCN1CC(=C(F)F)C2 (stereo partly drawn) | 30.5 min |
| C#Cc1c(F)ccc2cc(O)cc(-c3ncc4c(N5C[C@H]6CC[C@@H](C5)N6)nc(OC[C@@]56CCCN5C[C@H](F)C6)nc4c3F)c12 | 34.1 min |

Q. Let me know recorded half-life at 150 µM for [2H]C([2H])(Oc1nc(N2C[C@H]3CC[C@@H](C2)N3)c2cnc(-c3cc(O)cc4ccc(F)c(C#C)c34)c(F)c2n1)C12CCCN1CC(=C(F)F)C2 (stereo partly drawn) , thanks.
A. 24.3 min

---

testDetails: Metabolic stability in dog liver microsomes assessed as half life at 150 uM measured after 60 mins in presence of NADPH by LC-MS/MS analysis
Assay type: ADME, Canis lupus familiaris, Microsome
quantityMeasured: half-life at 150 µM
Express your answer as a number followed by its unit.

Use these answered entries as a reference point.
| compound | recordedMeasurement |
| --- | --- |
| [2H]C([2H])(Oc1nc(N2C[C@H]3CC[C@@H](C2)N3)c2cnc(-c3cc(O)cc4ccc(F)c(C#C)c34)c(F)c2n1)C12CCCN1CC(=C(F)F)C2 (stereo partly drawn) | 0.447 h |
| C#Cc1c(F)ccc2cc(O)cc(-c3ncc4c(N5C[C@H]6CC[C@@H](C5)N6)nc(OC[C@@]56CCCN5C[C@H](F)C6)nc4c3F)c12 | 1.38 h |

Consider the record given below.
Q. Let me know recorded half-life at 150 µM for [2H]C([2H])(Oc1nc(N2C[C@H]3CC[C@@H](C2)N3)c2cnc(-c3cc(N)cc4ccc(F)c(C#C)c34)c(F)c2n1)C12CCCN1CC(=C(F)F)C2 (stereo partly drawn) , thanks.
A. 1.43 h

---

testDetails: Metabolic stability in rat liver microsomes assessed as half life at 150 uM measured after 60 mins in presence of NADPH by LC-MS/MS analysis
Format: ADME, Microsome
quantityMeasured: half-life at 150 µM (h)
Numbers only; they are read as h.

Use these answered entries as a reference point.
| compound | valueUnit | half-life at 150 µM |
| --- | --- | --- |
| [2H]C([2H])(Oc1nc(N2C[C@H]3CC[C@@H](C2)N3)c2cnc(-c3cc(O)cc4ccc(F)c(C#C)c34)c(F)c2n1)C12CCCN1CC(=C(F)F)C2 (stereo partly drawn) | h | 1.39 |
| C#Cc1c(F)ccc2cc(O)cc(-c3ncc4c(N5C[C@H]6CC[C@@H](C5)N6)nc(OC[C@@]56CCCN5C[C@H](F)C6)nc4c3F)c12 | h | 2.88 |

Consider the record given below.
Q. Let me know recorded half-life at 150 µM for [2H]C([2H])(Oc1nc(N2C[C@H]3CC[C@@H](C2)N3)c2cnc(-c3cc(N)cc4ccc(F)c(C#C)c34)c(F)c2n1)C12CCCN1CC(=C(F)F)C2 (stereo partly drawn) , thanks.
A. 1.54

---

testDetails: AUC in Sprague-Dawley rat at 1 mg/kg,iv measured upto 24 hrs by LC-MS/MS analysis
Assay type: ADME, organism-based
Design: dose 1 mg/kg, time < 24 hrs, route iv
assayConditions: in vivo
The label depends only on AUC at 24 h: satisfied if it is at least 100 ng·h/mL, not satisfied if it is smaller.

Answered cases to consult:
| molecule | classAssignment |
| --- | --- |
| [2H]C([2H])(Oc1nc(NCC2(N(C)C)CCC2)c2cnc(-c3cc(O)cc4ccc(F)c(C#C)c34)c(F)c2n1)C12CCCN1CC(=C(F)F)C2 (stereo not given) | satisfied |
| [2H]C([2H])(Oc1nc(NCC2(N(C)C)CCC2)c2cnc(-c3cc(N)cc4ccc(F)c(C#C)c34)c(F)c2n1)C12CCCN1CC(=C(F)F)C2 (stereo not given) | satisfied |
| [2H]C([2H])(Oc1nc(N2C[C@H]3CC[C@@H](C2)N3)c2cnc(-c3cc(O)cc4ccc(F)c(C#C)c34)c(F)c2n1)C12CCCN1CC(=C(F)F)C2 (stereo not given in full) | not satisfied |

Moving on to the next molecule.
Q. Could you please find out whether C#Cc1c(F)ccc2cc(O)cc(-c3ncc4c(N5C[C@H]6CC[C@@H](C5)N6)nc(OC[C@@]56CCCN5C[C@H](F)C6)nc4c3F)c12 has AUC at 24 h that meets 100 ng·h/mL or exceeds it?
A. satisfied

---

testDetails: AUC in Sprague-Dawley rat at 3 mg/kg,po measured upto 24 hrs by LC-MS/MS analysis
Assay type: ADME, organism-based
Parameters: time < 24 hrs, dose 3 mg/kg, route po
assayConditions: in vivo
quantityMeasured: AUC at 24 h
Express your answer as a number followed by its unit.

Q. Let me know recorded AUC at 24 h for [2H]C([2H])(Oc1nc(N2C[C@H]3CC[C@@H](C2)N3)c2cnc(-c3cc(N)cc4ccc(F)c(C#C)c34)c(F)c2n1)C12CCCN1CC(=C(F)F)C2 (stereo partly specified) , thanks.
A. 2.89 ng·h/mL

---

Test system: AGS
testDetails: Antiproliferative activity against human AGS cells harboring […] assessed as inhibition of cell growth incubated for 5 days by crystal violet staining analysis
Type: functional, cell-based
assayConditions: ags
quantityMeasured: IC50 (nM)
Numbers only; they are read as nM.

| compound | quantityMeasured | recordedMeasurement |
| --- | --- | --- |
| C#CCN(C)C(=O)OC[C@H]1CC[C@@]2(COc3nc(N4C[C@H]5CC[C@@H](C4)N5)c4cnc(-c5cc(O)cc6ccc(F)c(C#C)c56)c(F)c4n3)CCCN12 (racemic) | IC50 | 25.5 |

Q. Let me know recorded IC50 for C#CCN(C)C(=O)OC[C@H]1CC[C@@]2(COc3nc(N4C[C@H]5CC[C@@H](C4)N5)c4cnc(-c5cc(O)cc6ccc(F)c(C#C)c56)c(F)c4n3)CCCN12 , thanks.
A. 59.3

---

System: NCI-H1299
testDetails: Antiproliferative activity against human NCI-H1299 cells harboring KRAS wild type assessed as inhibition of cell growth incubated for 5 days by crystal violet staining analysis
Type: functional, cell-based
assayConditions: NCI-H1299, 120 h
pIC50: −log10 of the molar value.
quantityMeasured: pIC50

Use these answered entries as a reference point.
| compound | recordedMeasurement |
| --- | --- |
| [2H]C([2H])(Oc1nc(N2C[C@H]3CC[C@@H](C2)N3)c2cnc(-c3cc(N)cc4ccc(F)c(C#C)c34)c(F)c2n1)C12CCCN1CC(=C(F)F)C2 (some centres not stated) | 5.73 |
| [2H]C([2H])(Oc1nc(N2C[C@H]3CC[C@@H](C2)N3C)c2cnc(-c3cc(O)cc4ccc(F)c(C#C)c34)c(F)c2n1)C12CCCN1CC(=C(F)F)C2 (some centres not stated) | < 5.30 |
| [2H]C([2H])(Oc1nc(N2C[C@H]3CC[C@@H](C2)N3)c2cnc(-c3cc(O)cc4ccc(F)c(C#C)c34)c(F)c2n1)C12CC(=C)CN1C[C@H](F)C2 (some centres not stated) | < 5.30 |
| [2H]C([2H])(Oc1nc(N2C[C@H]3CC[C@@H](C2)N3)c2cnc(-c3c(Cl)c(C)cc4[nH]ncc34)c(F)c2n1)C12CCCN1CC(=C(F)F)C2 (some centres not stated) | < 5.30 |

Q. Let me know recorded pIC50 for C#Cc1c(F)ccc2cc(O)cc(-c3ncc4c(N5C[C@H]6CC[C@@H](C5)N6)nc(NCCCn5cc(COCC67CCCN6CC(=C)C7)nn5)nc4c3F)c12 (some centres not stated) , thanks.
A. < 5.30

Q. Let me know recorded pIC50 for [2H]C1([2H])CCC2(C([2H])([2H])Oc3nc(N4C[C@H]5CC[C@@H](C4)N5)c4cnc(-c5cc(O)cc6ccc(F)c(C#C)c56)c(F)c4n3)CC(=C)CN12 (some centres not stated) , thanks.
A. < 5.30
